Biological target: Metabotropic glutamate receptor 2 (Homo sapiens, UniProt Q14416)
Sequence (Q14416 19-872 limits assumed): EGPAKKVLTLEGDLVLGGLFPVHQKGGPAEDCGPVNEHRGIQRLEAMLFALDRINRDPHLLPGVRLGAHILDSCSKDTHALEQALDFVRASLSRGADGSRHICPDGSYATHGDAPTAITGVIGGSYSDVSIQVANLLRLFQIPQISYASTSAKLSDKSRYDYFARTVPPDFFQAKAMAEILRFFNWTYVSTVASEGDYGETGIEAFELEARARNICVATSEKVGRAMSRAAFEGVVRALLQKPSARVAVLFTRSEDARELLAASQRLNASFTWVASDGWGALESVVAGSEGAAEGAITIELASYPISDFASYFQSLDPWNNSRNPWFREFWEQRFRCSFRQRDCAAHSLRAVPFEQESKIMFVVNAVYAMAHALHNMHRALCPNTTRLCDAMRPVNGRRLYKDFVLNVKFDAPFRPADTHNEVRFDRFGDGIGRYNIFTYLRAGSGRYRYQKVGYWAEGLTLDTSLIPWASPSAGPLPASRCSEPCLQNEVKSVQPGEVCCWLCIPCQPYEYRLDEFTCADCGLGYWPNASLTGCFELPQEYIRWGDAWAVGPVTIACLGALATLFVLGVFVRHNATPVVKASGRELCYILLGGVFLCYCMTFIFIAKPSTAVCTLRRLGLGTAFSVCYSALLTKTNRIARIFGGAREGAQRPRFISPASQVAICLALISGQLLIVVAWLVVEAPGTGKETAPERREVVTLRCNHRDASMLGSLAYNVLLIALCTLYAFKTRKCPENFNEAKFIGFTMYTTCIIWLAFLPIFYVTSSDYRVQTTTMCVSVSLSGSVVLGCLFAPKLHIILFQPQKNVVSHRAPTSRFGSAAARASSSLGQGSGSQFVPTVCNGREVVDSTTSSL
Assay: Displacement of [3H]JNJ-46281222 from human metabotropic glutamate receptor 2 expressed in CHOK1 cell membranes assessed as dissociation rate constant measured every 30 sec for 120 mins by scintillation proximity assay
endpoint: K (min⁻¹)

[
  {
    "chemical.structure": "Fc1cc(-c2ccn3c(CC4CC4)nnc3c2Cl)ccc1NC1CC1",
    "target.under.test": "Metabotropic glutamate receptor 2 (Homo sapiens, UniProt Q14416)",
    "quantitative.result": 0.061
  },
  {
    "chemical.structure": "O[C@H]1CC[C@H](Nc2ccc(-c3ccn4c(CC5CC5)nnc4c3Cl)cc2Cl)CC1",
    "target.under.test": "Metabotropic glutamate receptor 2 (Homo sapiens, UniProt Q14416)",
    "quantitative.result": 0.084
  },
  {
    "chemical.structure": "Cc1ccc(Oc2ccc(-c3ccn4c(CC5CC5)nnc4c3Cl)cc2F)c(C)n1",
    "target.under.test": "Metabotropic glutamate receptor 2 (Homo sapiens, UniProt Q14416)",
    "quantitative.result": 0.097
  },
  {
    "chemical.structure": "Cc1cc(Oc2ccc(-c3ccn4c(CC5CC5)nnc4c3C(F)(F)F)cc2F)cc(C)n1",
    "target.under.test": "Metabotropic glutamate receptor 2 (Homo sapiens, UniProt Q14416)",
    "quantitative.result": 0.095
  }
]

(1) O[C@]1(C2CC2)CC[C@H](Nc2ccc(-c3ccn4c(CC5CC5)nnc4c3C(F)(F)F)cc2Cl)CC1
(2) Cc1ccc(Oc2ccc(-c3ccn4c(CC5CC5)nnc4c3Cl)cc2Cl)c(C)n1
Input: Sorting by K in descending order, would 1 or 2 appear first? // respond with label for picked entry
Output: 2
